Measurement target: full length NS3/4a (Hepatitis C virus genotype 1b (isolate BK) (HCV))
Run description: NS3 Protease Assay (Example A), FRET-based
Assay type: biochemical
Condition summary: read-out: IC50 against the protease activity of the full length NS3/4a
Items are presented alongside their recorded IC50.

Please review the entries below; each comes with its answer.
CC[C@@H](N[C@@H](C)CC(N)=O)c1ccc(Cl)c(C(=O)c2ccc(-n3cccn3)nc2)c1F | < 1 µM
CC[C@@H](N[C@@H](C)CC(N)=O)c1ccc(Cl)c(C(=O)c2ccc(N(C)C)nc2)c1F | < 1 µM
CC[C@@H](N[C@@H](CC(N)=O)C(C)C)c1ccc(Cl)c(C(=O)c2ccc(N)nc2)c1F | 1 to 5 µM
C=CC[C@@H](N[C@H](C)CC(N)=O)c1ccc(Cl)c(C(=O)c2ccc(N)nc2)c1F | 1 to 5 µM
CC[C@@H](NCc1cnc[nH]1)c1ccc(Cl)c(C(=O)c2cccnc2)c1F | 1 to 5 µM
CC[C@@H](N[C@H](C)CC(N)=O)c1ccc(Cl)c(C(=O)c2ccc(C#N)nc2)c1F | < 1 µM

Could you tell me which IC50 is on file for "CC[C@@H](N)c1ccc(Cl)c(C(=O)c2ccc(C#N)nc2)c1F" ? 1 to 5 µM

Any idea what IC50 was measured for "CC[C@@H](N[C@@H](C)CC(N)=O)c1ccc(Cl)c(C(=O)c2cccc(C#N)c2)c1F" ? < 1 µM

###

Measurement target: full length NS3/4a (Hepatitis C virus genotype 1b (isolate BK) (HCV), UniProt P26663)
Sequence (P26663 1027-1657): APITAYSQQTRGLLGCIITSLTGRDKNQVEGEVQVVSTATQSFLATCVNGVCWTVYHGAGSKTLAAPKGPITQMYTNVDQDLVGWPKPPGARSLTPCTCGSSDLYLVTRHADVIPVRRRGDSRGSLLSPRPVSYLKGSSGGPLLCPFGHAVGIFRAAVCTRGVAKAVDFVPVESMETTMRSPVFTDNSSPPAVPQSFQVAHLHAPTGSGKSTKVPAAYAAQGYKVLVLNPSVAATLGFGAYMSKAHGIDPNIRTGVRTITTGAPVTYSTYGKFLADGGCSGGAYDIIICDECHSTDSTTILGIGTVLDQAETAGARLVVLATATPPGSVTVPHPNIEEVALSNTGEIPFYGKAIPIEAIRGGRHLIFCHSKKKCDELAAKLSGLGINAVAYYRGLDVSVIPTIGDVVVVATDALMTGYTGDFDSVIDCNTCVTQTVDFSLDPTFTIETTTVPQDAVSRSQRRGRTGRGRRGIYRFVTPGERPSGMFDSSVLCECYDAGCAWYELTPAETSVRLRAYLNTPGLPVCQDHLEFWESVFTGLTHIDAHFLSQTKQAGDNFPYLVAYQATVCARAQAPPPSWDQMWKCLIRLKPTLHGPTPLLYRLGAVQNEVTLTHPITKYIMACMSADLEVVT
Run description: NS3 Protease Assay (Example A), FRET-based
Assay type: biochemical
Condition summary: HCV NS3 protease assay, full length NS3/4a; read-out: Assay A IC50 (μM) average
Assay metric: log10(IC50) (log10 of the value in µM)
Please interpret these as log10 of IC50 where IC50 is in µM.

Fill blank: measured log10(IC50) of the compound CC[C@@H](N)c1ccc(Cl)c(C(=O)c2ccncn2)c1F [Example 10] is ____. 0.54

Sample CCC(NC(C)(C)CO)c1ccc(Cl)c(C(=O)c2ccccc2)c1F (centres unmarked) [Example 179] — what was its log10(IC50)? -1.20

###

Catalogue of IC50 readings, one per entry.
Measurement target: full length NS3/4a (Hepatitis C virus genotype 1b (isolate BK) (HCV))
Run description: NS3 Protease Assay (Example A), FRET-based
Type: biochemical
Condition summary: read-out: IC50 against the protease activity of the full length NS3/4a
Method: The HCV NS3 protease functions have been extensively studied and are considered as potential targets for antiviral therapy: see for example the many references listed in the introductory section of this application. Therefore, the activity of the compounds of the invention as anti-HCV agents was assessed using a full length HCV NS3 protease. […]

Check out these entries, answers already filled in.
CC[C@@H](N[C@@H](C)CC(N)=O)c1ccc(Cl)c(C(=O)c2ccccn2)c1F | < 1000 nM
COc1ccc([C@H](N[C@H](C)CC(N)=O)C2CC2)c(F)c1C(=O)c1ccc(F)cc1 | 1000 to 5000 nM

Fill in: IC50 of "CC[C@@H](N[C@@H](C)CC(N)=O)c1ccc(Cl)c(C(=O)c2ccc(N)c(Cl)c2)c1F" is ___ < 1000 nM

Which IC50 reading was recorded for the compound "CC[C@@H](N[C@@H](C)CC(N)=O)c1ccc(Cl)c(C(=O)c2ccc(O)cc2)c1F" ? < 1000 nM

So what's the measured IC50 for this one? "CC[C@@H](NCC1CC1)c1ccc(Cl)c(C(=O)c2cccnc2)c1F" 1000 to 5000 nM

Recorded IC50 of "CC[C@@H](N)c1ccc(Cl)c(C(=O)c2ccc(C(N)=O)nc2)c1F" , please. 1000 to 5000 nM

Entry "[2H]C([2H])([2H])C([2H])([2H])[C@@H](N)c1ccc(Cl)c(C(=O)c2ccccc2)c1F" : reported IC50 = ? < 1000 nM

So what does the record say about IC50 for "CC[C@@H](NC(C)C)c1ccc(Cl)c(C(=O)c2cccnc2)c1F" ? 1000 to 5000 nM

What measured IC50 goes with "C[C@H](CC(N)=O)N[C@@H](c1ccc(Cl)c(C(=O)c2ccncc2)c1F)C1CC1" ? 1000 to 5000 nM
